# Study target: T1, CD5 antigen (Acro, CD5-H52H5) (UniProt P06127 25-371)
# T1 construct: Bought protein
# T1 sequence (looked up): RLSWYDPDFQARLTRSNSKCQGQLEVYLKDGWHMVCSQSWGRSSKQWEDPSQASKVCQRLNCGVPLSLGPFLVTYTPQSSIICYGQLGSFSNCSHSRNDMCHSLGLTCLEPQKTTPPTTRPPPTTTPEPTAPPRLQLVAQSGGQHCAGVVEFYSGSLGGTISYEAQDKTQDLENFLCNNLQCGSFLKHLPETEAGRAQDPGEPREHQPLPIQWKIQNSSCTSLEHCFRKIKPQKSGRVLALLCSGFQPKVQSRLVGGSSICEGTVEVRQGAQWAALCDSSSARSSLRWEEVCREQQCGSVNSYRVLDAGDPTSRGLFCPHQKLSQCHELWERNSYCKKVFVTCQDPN
# Test description: BLI (Octet), IgG loaded on the biosensor, CD5 antigen 100 to 1.563 nM, 1:1 model
Attribute: koff

Binder | Display unit | koff
FHVH2 (#60 IgG) (Fc fusion, also called anti-CD5 IgG; not shown: human IgG4 Fc) QVQLVESGGGLVQPGGSLRLSCAASGFTFSSYEMNWVRQAPGKGLEWVSYISSSGSTIYYADSVKGRFTISRDNAKNSLYLQMNSLRAEDTAVYYCARVAQREGDVWGKGTTVTVSS | s⁻¹ | 0.000212
FHVH4 (#62 IgG) (Fc fusion, also called anti-CD5 IgG; not shown: human IgG4 Fc) QVQLVQSGAEVKKPGESLRISCKASGYSFSNHWIGWVRQKPGKGLEWMGSVYPGDSDTRYSPSFQGHVTVSADKSMNTAYLQWSSLKTSDTAMYYCARGGTIDGDYGGRQDFWGQGTMVTVSS | s⁻¹ | 0.000309
FHVH3 (#61 IgG) (Fc fusion, also called #61 clone; anti-CD5 IgG; not shown: human IgG4 Fc) QVQLVQSGAEVKKPGSSVKVSCKASGGTFSNYAISWVRQAPGQGLEWMGWISAYNGDTKYAQRLQGRVTMTTDTSTSTAYMELRNLRSDDTAVYYCARYESMSGQDIWGQGTLVTVSS | s⁻¹ | 0.000288
FHVH3VH1 (#61-42 IgG) (Fc fusion, also called anti-CD5 IgG; not shown: human IgG4 Fc) QVQLVQSGAEVKKPGSSVKVSCKASGGTFSNYAISWVRQAPGQGLEWMGWISAYNGDTKYAQRLQGRVTMTTDTSTSTAYMELRNLRSDDTAVYYCARYESMSGQDIWGQGTLVTVSSGGGGSGGGGSGGGGSEVQLLESGGGLVQPGGSLRLSCAASGFTFSHSAMGWVRQAPGKGLEWVSSIYARGGYTYYADSVKGRFTISRDNSKNTLYLQMNSLRAEDTAVYYCARGYHLEYMVSQDVWGQGTLVTVSS | s⁻¹ | 0.000189
FHVH1 (#42 IgG) (Fc fusion, also called #42 clone; anti-CD5 IgG; not shown: human IgG4 Fc) EVQLLESGGGLVQPGGSLRLSCAASGFTFSHSAMGWVRQAPGKGLEWVSSIYARGGYTYYADSVKGRFTISRDNSKNTLYLQMNSLRAEDTAVYYCARGYHLEYMVSQDVWGQGTLVTVSS | s⁻¹ | 0.000139
